tested on: TK-10; assay: NCI tumour cell line growth inhibition, 48 h
Active and inactive are the calls of the source. Cut-off read from the data, not from the text of the source: active = GI50 up to about 1.1 µM and inactive = higher.
Measured quantity: GI50

**Query** Lab request: please report GI50 under test system TK-10 for CN1CCN(Cc2ccccc2)CC1CC#N (centres undefined)
**Result** > 100 µM (inactive)

**Query** What value of GI50 on TK-10 does "N#Cc1c(N2CCCC2)ncn(-c2ccccc2)c1=S" have?
**Result** > 100 µM (inactive)

**Query** API: value(readout=GI50, system=TK-10) for record "O=C1CCCCC/C1=C\c1cccc([N+](=O)[O-])c1"
**Result** 33.7 µM (inactive)

**Query** Quick check: GI50 on TK-10, item CC1SC2=NC3=C(c4ccccc4C3=O)C(c3ccccc3Cl)N2C1=O (centres undefined) ?
**Result** > 100 µM (inactive)

**Query** Form: Entry = "O=c1c2ccccc2nc(-c2cccc([N+](=O)[O-])c2)n1O" | System = TK-10 | GI50 = ____
**Result** 94.2 µM (inactive)

**Query** Look up GI50 with TK-10 for this molecule: "C[Si](C)(N[Si](C)(C)OCCc1ccccc1)OCCc1ccccc1"
**Result** > 100 µM (inactive)

**Query** Form field: GI50 recorded for "Cc1ccc2c(c1C)C(=O)/C(=C/c1cccc(C)c1C(=O)O)C2" with TK-10 (enter value)
**Result** > 100 µM (inactive)

**Query** What is its GI50 for TK-10? Entry: "COc1ccc(Nc2cnc3cc(N)ccc3n2)cc1OC"
**Result** > 100 µM (inactive)

**Query** Recorded GI50 for COc1ccc(C2CC(c3c(C)nn(-c4ccccc4)c3-c3ccc(C)cc3O)=NN2c2ccccc2)cc1 (centres undefined) with TK-10, please?
**Result** > 100 µM (inactive)

====

tested on: DLD-1; assay: NCI tumour cell line growth inhibition, 48 h
The source made the active and inactive calls. Cut-off read from the data, not from the text of the source: active = GI50 up to about 1.1 µM and inactive = higher.
Measured quantity: GI50

**Query** Item under review: CC1CSC(=S)N1C(=O)N1C(=S)SCC1C (stereo unspecified) . Reported GI50?
**Result** 19.3 µM (inactive)

**Query** Name the recorded GI50 for "COc1cc(C=O)c(-c2cc(OC)c(OC)cc2C=O)cc1OC" .
**Result** 65 µM (inactive)

**Query** Could you share which GI50 value was measured for COc1ccc(C(C#N)NNc2nc(C)cc(O)n2)cc1OC (stereo unspecified) ?
**Result** > 100 µM (inactive)

**Query** Which measured GI50 value corresponds to "O=c1oc2c(O)c(O)c(O)c3c(=O)oc4c(O)c(O)cc1c4c23" ?
**Result** > 100 µM (inactive)

**Query** Item "Cc1ccc(C2=C(c3ccccc3)C(O)(c3ccc(C)cc3)C(c3ccccc3)=C2c2ccc(C)cc2)cc1" has what recorded GI50?
**Result** > 100 µM (inactive)

**Query** If you can, please state the reported GI50 value of COc1ccc2c(c1)CCc1cnn(C3OC(COC(C)=O)C(OC(C)=O)C(OC(C)=O)C3OC(C)=O)c1-2 (stereo unspecified) .
**Result** 46.8 µM (inactive)

====

test system: 786-0; assay: NCI tumour cell line growth inhibition, 48 h
The source made the active and inactive calls. Cut-off read from the data, not from the text of the source: active = GI50 up to about 1.1 µM and inactive = higher.
Measured quantity: GI50

**Query** Quick one: GI50 of "CC1=C(/C(C)=N/NC(=O)c2ccccc2O)C(C)C(/C(C)=N/NC(=O)c2ccccc2O)=C(C)N1" ?
**Result** 18.5 µM (inactive)

**Query** Consider the compound shown here: COC(=O)C(=O)C(C(=O)OC)C(=O)C(=O)Nc1ccccc1C(N)=O (stereo not given) What is its recorded GI50?
**Result** > 100 µM (inactive)

**Query** // GI50 lookup, key: CN1CCN(Cc2ccccc2)CC1CC#N (stereo not given)
**Result** > 100 µM (inactive)

**Query** Request the reported GI50 associated with "CC(C)N1[C@@H]2CCCC[C@H]2N(C(C)C)[PH]1=O"
**Result** > 100 µM (inactive)

**Query** Record request: GI50 value, item OC1c2ccccc2CCC1C(O)(C(F)(F)F)C(F)(F)F (stereo not given)
**Result** > 100 µM (inactive)
